- protocol_description: BSK_LPS_PGE2: BioMAP Diversity Plus: LPS Assay for Prostaglandin E2 (PGE2) Biomarker Activity (AID 2283082)
- test_settings: primary human HUVEC with PBMC; actives raise or lower the signal
The source made the active and inactive calls. Rule for the calls: active = hit-call score of the fitted dose curve at least 0.9, where 1 is the maximum; inactive = score below 0.9.
Respond using exactly one of the listed classes: True = active, False = inactive

[
  {
    "molecule": "c1ccc2c(c1)c1cccc3ccc4cccc2c4c31",
    "qualitative_label": "False"
  }
]

Prompt: # outcome recorded in this test, key = O=C(O)c1ccc([N+](=O)[O-])cc1
Completion: False

Prompt: Hello, I am checking results. What call was entered for CCC(=O)OCc1ccccc1 ?
Completion: False

Prompt: Please share the test call associated with CC[Si](OC(C)=O)(OC(C)=O)OC(C)=O .
Completion: False

Prompt: Per the assay record, what outcome was assigned to CCCCCCCCCC=O ?
Completion: False

Prompt: Would you mind telling me which call this test gave N#Cc1ccc(CC(=NNC(=O)Nc2ccc(OC(F)(F)F)cc2)c2cccc(C(F)(F)F)c2)cc1 ?
Completion: True

Prompt: Hi team, can someone confirm the assay call for CCCCCCCCC=O ?
Completion: False

Prompt: Hi, sorry to bother you, what did the test record for CC(=O)Nc1ccccc1O ?
Completion: False

Prompt: What call does the record list for C=C(C)C(=O)O[C@H]1C[C@@H]2CC[C@@]1(C)C2(C)C ?
Completion: False

Prompt: For c1ccc2sc(SN(C3CCCCC3)C3CCCCC3)nc2c1 , what call appears in the results of this test?
Completion: True

Prompt: Please indicate how the test categorized CC(=O)/C=C/C1=C(C)CCCC1(C)C .
Completion: False

Prompt: Could you kindly confirm the outcome this assay logged for O=[N+]([O-])c1cc(C(F)(F)F)ccc1Cl ?
Completion: False

Prompt: So what was the verdict on O=C(O)c1cn(C2CC2)c2cc(N3CCNCC3)c(F)cc2c1=O in this test?
Completion: False

Prompt: State the result this test recorded for Cc1cc(C2(c3cc(C)c(O)cc3C)OS(=O)(=O)c3ccccc32)c(C)cc1O .
Completion: False

Prompt: Look up the recorded call for CC(C)Oc1ccccc1O in this test.
Completion: False

Prompt: State the result this test recorded for C[C@H]1C[C@@H]2[C@H]([C@@H](O)C[C@@]3(C)[C@H]2CC[C@]3(O)C(=O)CO)[C@@]2(C)C=CC(=O)C=C12 .
Completion: False

Prompt: Test call for this molecule, please: CC(=O)OCCC(C)CC(C)(C)C (stereo not given)
Completion: False

Prompt: Could you kindly confirm the outcome this assay logged for NCCNCCN ?
Completion: False

Prompt: Could you check what this test reported for Cc1ccc(Nc2ccc(O)c3c2C(=O)c2ccccc2C3=O)cc1 ?
Completion: True

---

- protocol_description: ATG_TGFb_CIS: Attagene CIS-FACTORIAL HepG2 Assay for human Transforming Growth Factor (TGF) (AID 2282967)
- test_settings: HepG2 Attagene CIS TGFb reporter, mRNA transcription; actives raise or lower the signal
Calls of active or inactive are those of the source. How the source made its calls: active means hit-call score of the fitted dose curve at least 0.9, where 1 is the maximum; inactive means score below 0.9.
Pick one and only one: y (active), n (inactive)

// known answers, use as guide
[
  {
    "molecule": "COc1ccc(OC)c(OC)c1",
    "qualitative_label": "n"
  },
  {
    "molecule": "c1ccc(CCCc2ccccn2)cc1",
    "qualitative_label": "y"
  },
  {
    "molecule": "CCCC[n+]1ccccc1",
    "qualitative_label": "n"
  },
  {
    "molecule": "CC1CCC(C(C)(C)O)CC1 (stereo not drawn)",
    "qualitative_label": "n"
  },
  {
    "molecule": "CC1(C)C(=O)N(Br)C(=O)N1Cl",
    "qualitative_label": "n"
  },
  {
    "molecule": "CCCCCOC(=O)CCC",
    "qualitative_label": "n"
  },
  {
    "molecule": "CC1(C)[C@H]2CC[C@]1(C)[C@H](O)C2",
    "qualitative_label": "n"
  }
]

Now consider the entry below.
Prompt: # lookup: test call for CN(C)C(=N)N=C(N)N
Completion: n

The reported numbers originate from PubChem BioAssay (EPA / NIEHS).
